Catalogue of IC50 readings, one per entry.
target: Human P2Y12 receptor (Homo sapiens, UniProt Q9H244); construct: expressed in transfected cells; host or cells: HEK cells; test: Human P2Y12 receptor cell membrane binding assay with [3H] 2-Mes-ADP; details: 1 nM [3H] 2-Mes-ADP, membranes of HEK cells expressing P2Y12 receptor; read-out: Binding activity (IC50)
Sequence (Q9H244 whole entry): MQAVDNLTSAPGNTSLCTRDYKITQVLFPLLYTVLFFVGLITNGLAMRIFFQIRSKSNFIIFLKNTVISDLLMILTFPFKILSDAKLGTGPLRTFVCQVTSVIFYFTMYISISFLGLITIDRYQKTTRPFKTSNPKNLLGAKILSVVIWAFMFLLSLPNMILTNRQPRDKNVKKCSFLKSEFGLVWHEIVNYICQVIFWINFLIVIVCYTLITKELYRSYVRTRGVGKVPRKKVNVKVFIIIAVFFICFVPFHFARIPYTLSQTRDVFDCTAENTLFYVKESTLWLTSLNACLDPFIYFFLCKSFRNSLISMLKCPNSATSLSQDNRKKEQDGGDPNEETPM
Numeric only. Scale: nM

Here's what some known entries look like.
compound	assay-system	test-readout	obs-value
CCCc1cc2c(N3CCn4c(nnc4C(F)(F)F)C3)nc(Oc3ccccc3C(=O)O)nc2s1	Human P2Y12 receptor (Homo sapiens, UniProt Q9H244)	IC50	2220
CCCc1cc2c(N3CCn4c(nnc4C(F)(F)F)C3)nc(N3CCC(=NO)C3)nc2s1	Human P2Y12 receptor (Homo sapiens, UniProt Q9H244)	IC50	55
CCCc1cc2c(N3CCn4c(nnc4C(F)(F)F)C3)nc(NCC(O)CO)nc2s1 (stereo not shown)	Human P2Y12 receptor (Homo sapiens, UniProt Q9H244)	IC50	160

Kindly consider the entry below.
Note to self: IC50 recorded for `CCCc1cc2c(N3CCn4c(nnc4C(F)(F)F)C3)nc(N3CC[C@H](C(=O)NCCO)C3)nc2s1` was 110

----------
target: Human P2Y12 receptor (Homo sapiens); construct: expressed in transfected cells; host or cells: HEK cells; test: Human P2Y12 receptor cell membrane binding assay with [3H] 2-Mes-ADP; settings: 1 nM [3H] 2-Mes-ADP, membranes of HEK cells expressing P2Y12 receptor; read-out: Binding activity (IC50)
Below, each of the compounds is paired with its reported IC50 value.
Could you give me the number in nM? Just the number is fine.

compound	display-unit	IC50
CCc1cc2c(N3CCc4c(nc(C)nc4C(F)(F)F)C3)nc(N3CCNC(=O)C3)nc2s1 [Example 6-34]	nM	120
CCCc1cc2c(N3CCn4c(nnc4C(F)(F)F)C3)nc(N3CC[C@H](C(=O)NCCN)C3)nc2s1 [Example 1-91]	nM	190
CCCc1cc2c(N3CCn4c(nnc4C(F)(F)F)C3)nc(C(N)=O)nc2s1 [Example 4-3]	nM	630

Below: the item to evaluate.
Reported IC50 ( CCCc1cc2c(N3CCn4c(nnc4C(F)(F)F)C3)nc(N3CCn4cc(C(F)(F)F)nc4C3)nc2s1 [Example 1-78] ) = 110

----------
biological target: Human P2Y12 receptor (Homo sapiens, UniProt Q9H244); construct: expressed in transfected cells; host or cells: HEK cells; test: Human P2Y12 receptor cell membrane binding assay with [3H] 2-Mes-ADP; settings: 1 nM [3H] 2-Mes-ADP, membranes of HEK cells expressing P2Y12 receptor; read-out: Binding activity (IC50)
test-readout: IC50 (nM)
Kindly answer with a numeric value in nM, unit omitted.

smiles-record	IC50 (nM)
CCCc1cc2c(N3CCn4c(nnc4C(F)(F)C(F)(F)F)C3)nc(N3CCNCC3)nc2s1	266
CCCc1nc2c(N3CCn4c(nnc4C(F)(F)F)C3)nc(N3CCC[C@H](C(=O)O)C3)nc2s1	32
CCCc1cc2c(N3CCn4c(nnc4C(F)(F)F)C3)nc(Oc3ccccn3)nc2s1	260

The recorded IC50 for `CCCc1cc2c(N3CCn4c(nnc4C(F)(F)F)C3)nc(-c3nnc(CC(=O)O)o3)nc2s1` is 410

`CCCc1cc2c(N3CCn4c(nnc4C(F)(F)F)C3)nc(COc3ccccc3C(=O)O)nc2s1` yielded IC50 of 353

Reported IC50 ( `CCCc1cc2c(N3CCn4c(nnc4C(F)(F)F)C3)nc(-c3nc(CC)no3)nc2s1` ) = 130

Item: `CCc1cc2c(N3CCc4ccccc4C3)nc(N3CCNC(=O)C3)nc2s1` | IC50: 10000

Entry `CCCc1cc2c(N3CCn4c(nnc4C(F)(F)F)C3)nc(N3CC[C@@H](N)C3)nc2s1` , IC50 reported as 83
